Source listed as patent US9296734B2.

- study-system: Beta Secretase enzyme (BACE) (Homo sapiens (Human))
- assay-notes: In vitro enzymatic BACE FRET assay
- Type: biochemical
- test-parameters: average IC50, BACE enzyme assay; read-out: BACE 1 FRET assay IC50
pIC50: −log10 of the molar value.
property: pIC50

# example entries with known answers
N#Cc1cc(Nc2ccc(F)c([C@]3(CF)C[C@@H](C(F)(F)F)OC(N)=N3)c2)ccn1 [Example 24] :: 4.72
CC#CCOc1cnc(C(=O)Nc2cc(F)c(F)c([C@]3(CF)C[C@@H](C(F)(F)F)OC(N)=N3)c2)cn1 [Example 155] :: 9.06
C#CCOc1ccc(C(=O)Nc2cc(F)c(F)c([C@]3(CF)C[C@@H](C(F)(F)F)OC(N)=N3)c2)nc1 [Example 159] :: 7.89
N#Cc1ccc(C(=O)Nc2ccc(F)c([C@]3(CF)C[C@@H](C(F)(F)F)OC(N)=N3)n2)nc1 [Example 134] :: 7.10
COc1cc(C#N)cnc1C(=O)Nc1cc(F)c(F)c([C@]2(C)C[C@@H](C(F)(F)F)OC(N)=N2)c1 [Example 168] :: 7.29

[1] COc1cnc(C(=O)Nc2cc(F)c(F)c([C@]3(CF)C[C@@H](C(F)(F)F)OC(N)=N3)c2)cn1 [Example 153]
[2] COC1CCN(C(=O)Nc2ccc(F)c([C@]3(C)C[C@@H](C(F)(F)F)OC(N)=N3)c2)CC1 [Example 119]
Inquiry: Return label of the item with the larger pIC50. Candidates: 1 , 2 . Please respond with the label that marks your chosen entry.
Reply text: 1

---

- study-system: Beta Secretase enzyme (BACE) (Homo sapiens (Human))
- assay-notes: In vitro enzymatic BACE FRET assay
- Type: biochemical
- test-parameters: average IC50, BACE enzyme assay; read-out: BACE 1 FRET assay IC50
property: IC50 (nM)

C#CCOc1ccc(C(=O)Nc2ccc(F)c([C@]3(C)C[C@@H](C(F)(F)F)OC(N)=N3)c2)nc1 :: 17.6

[1] C[C@@]1(c2cc(NC(=O)c3ncc(Cl)cc3Cl)cc(F)c2F)C[C@@H](C(F)(F)F)OC(N)=N1
[2] CC#CCOc1cnc(C(=O)Nc2ccc(F)c([C@]3(CF)C[C@@H](C(F)(F)F)OC(N)=N3)c2)cn1
[3] NC1=N[C@](CF)(c2cc(Nc3nccc4cc(C#CC5CC5)cnc34)ccc2F)C[C@@H](C(F)(F)F)O1
Inquiry: Hey, quick one: sort these by IC50, largest value first please. Response format: the labels, sorted as the prompt asks.
Reply text: 3, 1, 2

---

- study-system: Beta Secretase enzyme (BACE) (Homo sapiens (Human))
- assay-notes: In vitro enzymatic BACE FRET assay
- Format: biochemical
- test-parameters: average IC50; read-out: BACE 1 FRET assay IC50
pIC50: −log10 of the molar value.
property: pIC50

C[C@@]1(c2cc(NC(=O)c3ccc(Cl)cn3)cnc2F)C[C@@H](C(F)(F)F)OC(N)=N1 :: 7.28
C[C@@]1(c2cc(NC(=O)c3cnc(C(F)F)cn3)cc(F)c2F)C[C@@H](C(F)(F)F)OC(N)=N1 :: 7.34

[1] COc1cc(C#N)cnc1C(=O)Nc1ccc(F)c([C@]2(CF)C[C@@H](C(F)(F)F)OC(N)=N2)c1
[2] Cc1c(C(=O)Nc2ccc(F)c([C@]3(CF)C[C@@H](C(F)(F)F)OC(N)=N3)c2)nc2ccccn12
Inquiry: Identify the entry with the smaller pIC50: 1 or 2 . Please respond with the label that marks your chosen entry.
Reply text: 2
(2: 5.82, 1: 7.38)

---

- study-system: Beta Secretase enzyme (BACE) (Homo sapiens (Human), UniProt P56817)
- Sequence (P56817 46-501): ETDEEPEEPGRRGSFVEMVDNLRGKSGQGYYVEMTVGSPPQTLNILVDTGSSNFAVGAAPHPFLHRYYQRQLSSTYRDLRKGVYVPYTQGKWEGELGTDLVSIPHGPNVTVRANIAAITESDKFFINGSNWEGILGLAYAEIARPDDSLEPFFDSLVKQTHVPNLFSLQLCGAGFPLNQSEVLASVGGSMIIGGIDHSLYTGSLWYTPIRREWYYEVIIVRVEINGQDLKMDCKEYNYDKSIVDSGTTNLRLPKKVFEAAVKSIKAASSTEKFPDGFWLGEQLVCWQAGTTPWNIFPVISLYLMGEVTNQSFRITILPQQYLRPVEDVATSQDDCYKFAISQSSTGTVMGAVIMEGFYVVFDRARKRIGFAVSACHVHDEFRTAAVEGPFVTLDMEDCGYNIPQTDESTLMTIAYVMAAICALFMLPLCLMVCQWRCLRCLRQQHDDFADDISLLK
- assay-notes: In vitro enzymatic BACE FRET assay
- Format: biochemical
- test-parameters: average; read-out: BACE 1 FRET assay IC50
property: IC50 (nM)

COc1cnc(C(=O)Nc2cc(C)c(F)c([C@]3(CF)C[C@@H](C(F)(F)F)OC(N)=N3)c2)cn1 :: 30

[P] NC1=N[C@](CF)(c2cc(C#Cc3ccc4[nH]ccc4c3)ccc2F)C[C@@H](C(F)(F)F)O1
[Q] NC1=N[C@](CF)(c2cc(C#Cc3ccc4cc[nH]c4c3)ccc2F)C[C@@H](C(F)(F)F)O1
[R] NC1=N[C@](CF)(c2cc(C#Cc3cccc4cc[nH]c34)ccc2F)C[C@@H](C(F)(F)F)O1
Inquiry: Hey, quick one: sort these by IC50, largest value first please. Response format: the labels, sorted as the prompt asks.
Reply text: R, Q, P
(R: 5600 nM, Q: 2200 nM, P: 577 nM)

---

- study-system: Cathepsin D (Cat D) (Homo sapiens (Human))
- Sequence (P07339 65-412, species assumed): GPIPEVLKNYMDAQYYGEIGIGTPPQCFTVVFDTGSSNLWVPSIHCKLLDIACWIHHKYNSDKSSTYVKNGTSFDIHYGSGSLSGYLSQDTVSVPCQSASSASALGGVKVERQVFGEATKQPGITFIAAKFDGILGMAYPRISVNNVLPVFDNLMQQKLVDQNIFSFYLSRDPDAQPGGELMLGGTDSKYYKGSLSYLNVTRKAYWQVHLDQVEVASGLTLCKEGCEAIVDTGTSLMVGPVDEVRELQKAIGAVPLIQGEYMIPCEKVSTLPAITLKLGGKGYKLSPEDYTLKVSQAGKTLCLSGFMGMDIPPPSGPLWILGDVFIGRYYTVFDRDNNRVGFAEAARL
- assay-notes: In vitro enzymatic Cathepsin D (Cat D) FRET assay
- Assay type: biochemical
- test-parameters: average; read-out: CatD IC50
property: IC50 (µM)

C#CCOc1cnc(C(=O)Nc2cc(F)c(F)c([C@]3(C)C[C@@H](C(F)(F)F)OC(N)=N3)c2)cn1 :: 505
C[C@@]1(c2cc(NC(=O)c3ncc(Br)cc3Cl)cc(F)c2F)C[C@@H](C(F)(F)F)OC(N)=N1 :: 928
Cc1cc(NC(=O)c2ccc(Cl)cn2)cc([C@]2(CF)C[C@@H](C(F)(F)F)OC(N)=N2)c1F :: 515
C[C@@]1(c2cc(NC(=O)c3ccc(Br)cn3)cc(Cl)c2F)C[C@@H](C(F)(F)F)OC(N)=N1 :: 739
Cc1cc(C#N)cnc1C(=O)Nc1cc(F)c(F)c([C@]2(CF)C[C@@H](C(F)(F)F)OC(N)=N2)c1 :: 568
COc1ccc(C(=O)Nc2cc(Cl)c(F)c([C@]3(C)C[C@@H](C(F)(F)F)OC(N)=N3)c2)nc1 :: 622
Cc1cc(OC(F)F)cnc1C(=O)Nc1cc(C)c(F)c([C@]2(CF)C[C@@H](C(F)(F)F)OC(N)=N2)c1 :: 775
C[C@@]1(c2cc(NC(=O)c3ccc(C#N)cn3)cc(Cl)c2F)C[C@@H](C(F)(F)F)OC(N)=N1 :: 488

[P] C#CCOc1cnc(C(=O)Nc2ccc(F)c([C@]3(C)C[C@@H](C(F)(F)F)OC(N)=N3)c2)cn1
[Q] NC1=N[C@](CF)(c2cc(NC(=S)c3ccc(Cl)cn3)ccc2F)C[C@@H](C(F)(F)F)O1
[R] C#CCOc1cnc(C(=O)Nc2cc(Cl)c(F)c([C@]3(C)C[C@@H](C(F)(F)F)OC(N)=N3)c2)cn1
Inquiry: Would you mind ranking these compounds by ascending IC50? Response format: the labels, sorted as the prompt asks.
Reply text: R, Q, P

---

- System: Aβ40 in conditioned medium of cells stably expressing Amyloid Precursor Protein (APP)
- assay-notes: In vitro BACE cell-based assay (Aβ40 sandwich ELISA)
- test-parameters: Homo sapiens, HEK293, HEK cells; average; read-out: HEK cell assay IC50
pIC50: −log10 of the molar value.
property: pIC50

NC1=N[C@](CF)(c2cc(C#Cc3cccc4cc[nH]c34)ccc2F)C[C@@H](C(F)(F)F)O1 :: 5.34
COc1ccc(C(=O)Nc2cc(Cl)c(F)c([C@]3(C)C[C@@H](C(F)(F)F)OC(N)=N3)c2)nc1 :: 7.46
Cc1cc(OC(F)F)cnc1C(=O)Nc1cc(C)c(F)c([C@]2(CF)C[C@@H](C(F)(F)F)OC(N)=N2)c1 :: 7.55

[a] CC#CCOc1ccc(C(=O)Nc2cc(F)c(F)c([C@]3(C)C[C@@H](C(F)(F)F)OC(N)=N3)c2)nc1
[b] COc1cnc(C(=O)Nc2cc(F)c(F)c([C@]3(C)C[C@@H](C(F)(F)F)OC(N)=N3)c2)c(F)c1
[c] COc1cc(Cl)cnc1C(=O)Nc1cc(C)c(F)c([C@]2(CF)C[C@@H](C(F)(F)F)OC(N)=N2)c1
[d] NC1=N[C@](CF)(c2cc(C#Cc3ccc4[nH]ccc4c3)ccc2F)C[C@@H](C(F)(F)F)O1
[e] N#Cc1ccc(C#Cc2ccc(F)c([C@]3(CF)C[C@@H](C(F)(F)F)OC(N)=N3)c2)nc1
Inquiry: Would you mind ranking these compounds by ascending pIC50? Response format: the labels, sorted as the prompt asks.
Reply text: d, e, c, b, a
(d: 5.74, e: 6.29, c: 7.54, b: 7.92, a: 8.52)

---

Each record here notes measured pIC50.
- Tested on: Aβ40 in conditioned medium of cells stably expressing Amyloid Precursor Protein (APP)
- assay-notes: In vitro BACE cell-based assay (Aβ40 sandwich ELISA)
- test-parameters: Homo sapiens, HEK293, read-out: HEK cell assay IC50
Please note pIC50 is a logarithmic value: minus log10 of concentration in mol/L. Answer with that number alone.

NC1=N[C@](CF)(c2cc(NC(=O)c3ccc(Cl)cn3)cnc2F)C[C@@H](C(F)(F)F)O1 :: 6.38
Cc1cc(Cl)cnc1C(=O)Nc1ccc(F)c([C@]2(CF)C[C@@H](C(F)(F)F)OC(N)=N2)c1 :: 7.51
COc1cnc(C(=O)Nc2cc(Cl)c(F)c([C@]3(C)C[C@@H](C(F)(F)F)OC(N)=N3)c2)cn1 :: 8.52

Inquiry: Entry under review: C[C@@]1(c2cc(NC(=O)c3ncc(C#N)cc3Cl)cnc2F)C[C@@H](C(F)(F)F)OC(N)=N1 . Reported pIC50?
Reply text: 7.45

Inquiry: Then this compound: NC1=N[C@](CF)(c2cc(Oc3cc(-c4ccccc4)ccn3)ccc2F)C[C@@H](C(F)(F)F)O1
Reply text: 5.55

Inquiry: Then this compound: N#Cc1cnc(C(=O)Nc2cc(F)c(F)c([C@]3(CF)C[C@@H](C(F)(F)F)OC(N)=N3)c2)c(F)c1
Reply text: 7.24

Inquiry: Then this compound: NC1=N[C@](CF)(c2cc(Nc3nccc4cn(C(F)F)nc34)ccc2F)C[C@@H](C(F)(F)F)O1 [Example 20, 2,2,2-trifluoroacetate]
Reply text: 4.97
